assay.info: Pharmacokinetic study in male SD rats, intragastric
Type: in vivo
applied.conditions: male, SD, plasma, po; rat, p.o., 5 mg/kg; read-out: Cmax
Procedure: Male SD rats were fasted overnight before test. […] The collected plasma was quantitatively analyzed, plasma concentration-time data of animals were analyzed using WinNonlin (professional edition, version 5.2) software, a non-compartmental model was used for concentration analysis, and the pharmacokinetic parameters of the test compounds were calculated.
measured.property: Cmax (ng/mL)
The reply should contain only the number, in ng/mL.

Input: Looking for the measured Cmax of Nc1nccn2c(C34CCC(NC(=O)CN5CCOCC5)(CC3)C4)nc(-c3ccc(C(=O)Nc4cc(C(F)(F)F)ccn4)cc3)c12 , can you help?
Output: 8320

----------
assay.info: Pharmacokinetic study in male beagle dogs, intragastric
Format: in vivo
applied.conditions: male, beagle, plasma, po; dog, p.o., 5 mg/kg; read-out: Cmax
measured.property: Cmax (ng/mL)
The reply should contain only the number, in ng/mL.

Input: Looking for the measured Cmax of Nc1nccn2c(C34CCC(NC(=O)CN5CCOCC5)(CC3)C4)nc(-c3ccc(C(=O)Nc4cc(C(F)(F)F)ccn4)cc3)c12 , can you help?
Output: 641

----------
study.system: UniProt Q06187
assay.info: In vitro inhibitory activity against BTK(wt) enzyme (33P-ATP filter binding)
Format: biochemical
applied.conditions: class symbols
measured.property: IC50

Input: Looking for the measured IC50 of Nc1ncnc2c1c(-c1ccc(C(=O)Nc3cc(C(F)(F)F)ccn3)cc1)cn2C12CCC(NC(=O)CN3CCOCC3)(CC1)C2 , can you help?
Output: 1 to 10 nM

Input: Looking for the measured IC50 of CC(C)(O)C(=O)NC12CCC(n3cc(-c4ccc(C(=O)Nc5cc(C(F)(F)F)ccn5)cc4)c4c(N)ncnc43)(CC1)C2 , can you help?
Output: 10 to 50 nM

Input: Looking for the measured IC50 of Nc1nccn2c(C34CCC(NC(=O)c5ccco5)(CC3)C4)nc(-c3ccc(C(=O)Nc4cc(C(F)(F)F)ccn4)cc3)c12 , can you help?
Output: 1 to 10 nM

Input: Looking for the measured IC50 of COc1ccc(F)cc1C(=O)NCc1ccc(-c2nc(C34CCC(NC(=O)C(C)(C)O)(CC3)C4)n3ccnc(N)c23)cc1 , can you help?
Output: 10 to 50 nM

Input: Looking for the measured IC50 of Nc1nccn2c(C34CCC(NC(=O)CN5CCOCC5)(CC3)C4)nc(-c3ccc(Oc4ccccc4)cc3)c12 , can you help?
Output: 10 to 50 nM

Input: Looking for the measured IC50 of CC#CC(=O)NC12CCC(n3cc(-c4ccc(C(=O)Nc5cc(C(F)(F)F)ccn5)cc4)c4c(N)ncnc43)(CC1)C2 , can you help?
Output: 1 to 10 nM

----------
Exercise: state measured IC50 for each of the compounds provided.
study.system: BTK(C481S) (Homo sapiens (Human), UniProt Q06187, C481S)
Sequence (Q06187 whole entry C481S): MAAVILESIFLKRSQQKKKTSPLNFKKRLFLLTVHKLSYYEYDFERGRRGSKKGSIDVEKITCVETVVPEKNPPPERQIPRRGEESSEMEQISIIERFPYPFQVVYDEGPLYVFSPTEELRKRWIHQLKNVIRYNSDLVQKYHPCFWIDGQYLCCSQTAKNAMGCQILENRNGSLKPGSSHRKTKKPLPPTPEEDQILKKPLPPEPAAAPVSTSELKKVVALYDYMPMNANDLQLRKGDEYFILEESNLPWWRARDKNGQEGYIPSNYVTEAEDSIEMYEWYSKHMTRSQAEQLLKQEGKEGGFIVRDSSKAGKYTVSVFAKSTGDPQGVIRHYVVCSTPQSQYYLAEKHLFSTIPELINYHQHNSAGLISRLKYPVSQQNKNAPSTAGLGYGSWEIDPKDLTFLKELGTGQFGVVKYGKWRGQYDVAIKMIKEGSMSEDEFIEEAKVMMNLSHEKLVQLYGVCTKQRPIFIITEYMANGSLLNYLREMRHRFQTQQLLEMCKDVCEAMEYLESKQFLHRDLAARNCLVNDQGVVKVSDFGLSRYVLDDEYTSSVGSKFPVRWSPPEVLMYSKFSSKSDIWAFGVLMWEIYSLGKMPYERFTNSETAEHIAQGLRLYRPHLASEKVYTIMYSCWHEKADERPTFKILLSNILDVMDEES
assay.info: In vitro inhibitory activity against BTK(C481S) enzyme (33P-ATP filter binding)
Assay type: biochemical
applied.conditions: class symbols; read-out: IC50 BTK(C48IS)

Input: Looking for the measured IC50 of Nc1nccn2c(C34CCC(NC(=O)C5CCCO5)(CC3)C4)nc(-c3ccc(C(=O)Nc4cc(C(F)(F)F)ccn4)cc3)c12 (stereo not shown) [Compound A-10-11] , can you help?
Output: 0.1 to 1 nM

Input: Looking for the measured IC50 of CC(C)(O)C(=O)NC12CCC(c3nc(-c4ccc(Oc5ccccc5)cc4)c4c(N)nccn34)(CC1)C2 [Compound A-13-1] , can you help?
Output: 1 to 10 nM

Input: Looking for the measured IC50 of COCCC(=O)NC12CCC(n3cc(-c4ccc(C(=O)Nc5cc(C(F)(F)F)ccn5)cc4)c4c(N)ncnc43)(CC1)C2 [Compound B-6-3] , can you help?
Output: 1 to 10 nM

Input: Looking for the measured IC50 of CC(C)(O)C(=O)NC12CCC(n3cc(-c4ccc(C(=O)Nc5cc(C(F)(F)F)ccn5)cc4)c4c(N)ncnc43)(CC1)C2 [Compound B-6-2] , can you help?
Output: 1 to 10 nM

Input: Looking for the measured IC50 of COCCC(=O)NC12CCC(c3nc(-c4ccc(CNC(=O)c5cc(F)ccc5OC)cc4)c4c(N)nccn34)(CC1)C2 [Compound A-16-2] , can you help?
Output: 1 to 10 nM

Input: Looking for the measured IC50 of CC#CC(=O)NC12CCC(n3cc(-c4ccc(C(=O)Nc5cc(C(F)(F)F)ccn5)cc4)c4c(N)ncnc43)(CC1)C2 [Compound B-6-1] , can you help?
Output: 1 to 10 nM

Input: Looking for the measured IC50 of CC#CC(=O)NC12CCC(c3nc(-c4ccc(C(=O)Nc5cc(C(F)(F)F)ccn5)cc4F)c4c(N)nccn34)(CC1)C2 [Compound A-7-9] , can you help?
Output: 0.1 to 1 nM

Input: Looking for the measured IC50 of N#CC1(C(=O)NC23CCC(c4nc(-c5ccc(C(=O)Nc6cc(C(F)(F)F)ccn6)cc5)c5c(N)nccn45)(CC2)C3)CCOCC1 [Compound A-10-15] , can you help?
Output: 0.1 to 1 nM

Input: Looking for the measured IC50 of N#CC1(C(=O)NC23CCC(c4nc(-c5ccc(C(=O)Nc6cc(C(F)(F)F)ccn6)cc5)c5c(N)nccn45)(CC2)C3)CC1 [Compound A-10-12] , can you help?
Output: 0.1 to 1 nM

Input: Looking for the measured IC50 of Nc1nccn2c(C34CCC(NC(=O)CN5CCOCC5)(CC3)C4)nc(-c3ccc(C(=O)Nc4cc(C(F)(F)F)ccn4)cc3)c12 [Compound A-10-10] , can you help?
Output: ≤ 0.1 nM

Input: Looking for the measured IC50 of COc1ccccc1C(=O)NC12CCC(c3nc(-c4ccc(C(=O)Nc5cc(C(F)(F)F)ccn5)cc4)c4c(N)nccn34)(CC1)C2 [Compound A-10-20] , can you help?
Output: 1 to 10 nM

Input: Looking for the measured IC50 of COC/C=C/C(=O)NC12CCC(c3nc(-c4ccc(C(=O)Nc5cc(C(F)(F)F)ccn5)cc4)c4c(N)nccn34)(CC1)C2 [Compound A-10-1] , can you help?
Output: 0.1 to 1 nM

Input: Looking for the measured IC50 of CC#CC(=O)NC12CCC(c3nc(-c4ccc(Oc5ccccc5)cc4)c4c(N)nccn34)(CC1)C2 [Compound A-7-14] , can you help?
Output: 0.1 to 1 nM

----------
assay.info: Pharmacokinetic study in male SD rats, intragastric
Format: in vivo
applied.conditions: male, SD, plasma, po; rat, 5 mg/kg
measured.property: Tmax
Field: value (include unit after the number)

Input: Looking for the measured Tmax of Nc1nccn2c(C34CCC(NC(=O)CN5CCOCC5)(CC3)C4)nc(-c3ccc(C(=O)Nc4cc(C(F)(F)F)ccn4)cc3)c12 [Compound A-10-10] , can you help?
Output: 2 h

----------
assay.info: Pharmacokinetic study in male beagle dogs, intragastric
Type: in vivo
applied.conditions: male, beagle, plasma, po; dog, 5 mg/kg
measured.property: half-life

Input: Looking for the measured half-life of Nc1nccn2c(C34CCC(NC(=O)CN5CCOCC5)(CC3)C4)nc(-c3ccc(C(=O)Nc4cc(C(F)(F)F)ccn4)cc3)c12 [Compound A-10-10] , can you help?
Output: 14.2 h

----------
study.system: BTK(wt) (Homo sapiens (Human), UniProt Q06187)
Sequence (Q06187 whole entry): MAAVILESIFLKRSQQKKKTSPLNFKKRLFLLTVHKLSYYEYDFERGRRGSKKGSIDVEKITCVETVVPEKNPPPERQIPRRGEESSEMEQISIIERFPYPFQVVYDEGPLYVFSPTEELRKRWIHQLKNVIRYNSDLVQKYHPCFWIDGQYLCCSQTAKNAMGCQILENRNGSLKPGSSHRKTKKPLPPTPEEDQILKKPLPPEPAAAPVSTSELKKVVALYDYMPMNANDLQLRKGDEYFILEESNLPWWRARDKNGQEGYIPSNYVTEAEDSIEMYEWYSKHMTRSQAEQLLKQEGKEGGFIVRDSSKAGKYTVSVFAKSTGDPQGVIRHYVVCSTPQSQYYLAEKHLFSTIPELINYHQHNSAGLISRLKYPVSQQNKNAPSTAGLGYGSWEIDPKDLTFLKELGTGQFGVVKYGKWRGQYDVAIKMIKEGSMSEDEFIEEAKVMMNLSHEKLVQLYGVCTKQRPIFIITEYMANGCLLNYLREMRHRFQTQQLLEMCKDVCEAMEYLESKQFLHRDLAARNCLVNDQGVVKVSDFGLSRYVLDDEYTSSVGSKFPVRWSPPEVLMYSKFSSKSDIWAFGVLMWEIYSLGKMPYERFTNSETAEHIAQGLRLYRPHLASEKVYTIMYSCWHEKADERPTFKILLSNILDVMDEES
assay.info: In vitro inhibitory activity against BTK(wt) enzyme (33P-ATP filter binding)
Format: biochemical
applied.conditions: class symbols
measured.property: IC50

Input: Looking for the measured IC50 of Nc1nccn2c(C34CCC(NC(=O)C5CCCO5)(CC3)C4)nc(-c3ccc(C(=O)Nc4cc(C(F)(F)F)ccn4)cc3)c12 (stereo not drawn) , can you help?
Output: 1 to 10 nM

Input: Looking for the measured IC50 of CC1(C(=O)NC23CCC(c4nc(-c5ccc(C(=O)Nc6cc(C(F)(F)F)ccn6)cc5)c5c(N)nccn45)(CC2)C3)COC1 , can you help?
Output: 1 to 10 nM

Input: Looking for the measured IC50 of COc1ccc(F)cc1C(=O)NCc1ccc(-c2nc(C34CCC(NC(=O)C5(C)COC5)(CC3)C4)n3ccnc(N)c23)cc1 , can you help?
Output: 1 to 10 nM

----------
assay.info: Pharmacokinetic study in male beagle dogs, intragastric
Format: in vivo
applied.conditions: male, beagle, plasma, po; dog, 5 mg/kg
measured.property: AUC(0-inf)

Input: Looking for the measured AUC(0-inf) of Nc1nccn2c(C34CCC(NC(=O)CN5CCOCC5)(CC3)C4)nc(-c3ccc(C(=O)Nc4cc(C(F)(F)F)ccn4)cc3)c12 , can you help?
Output: 14900 ng·h/mL

----------
study.system: UniProt Q06187
assay.info: pBTK inhibition in HEK293 cells transfected with BTK(wt) (ELISA)
Assay type: cell-based
applied.conditions: 2 h
measured.property: pIC50
To interpret pIC50, take it as minus log10 of a concentration measured in moles per litre.

Input: Looking for the measured pIC50 of Nc1nccn2c(C34CCC(NC(=O)CN5CCOCC5)(CC3)C4)nc(-c3ccc(C(=O)Nc4cc(C(F)(F)F)ccn4)cc3)c12 , can you help?
Output: 7.11

The reported measurements were obtained from patent US11420975B2.
